Molecular target: rat histamine H3 receptor (Rattus norvegicus)
Construct: encoding the entire 445-amino-acid rat histamine H3 receptor; expressed in transfected cells
Sequence (Q9QYN8 whole entry): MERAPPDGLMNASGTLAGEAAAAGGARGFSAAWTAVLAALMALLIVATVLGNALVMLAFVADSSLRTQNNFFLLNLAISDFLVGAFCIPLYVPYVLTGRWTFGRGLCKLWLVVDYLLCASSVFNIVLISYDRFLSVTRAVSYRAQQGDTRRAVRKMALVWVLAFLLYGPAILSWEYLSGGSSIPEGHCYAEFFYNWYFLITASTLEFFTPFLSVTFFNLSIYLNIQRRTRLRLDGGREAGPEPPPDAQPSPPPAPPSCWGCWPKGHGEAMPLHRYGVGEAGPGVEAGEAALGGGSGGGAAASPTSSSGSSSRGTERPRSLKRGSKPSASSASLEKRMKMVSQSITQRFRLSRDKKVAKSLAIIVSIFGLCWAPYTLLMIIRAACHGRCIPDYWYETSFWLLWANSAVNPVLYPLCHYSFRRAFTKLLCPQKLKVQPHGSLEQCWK
Assay: Rat H3 radioligand binding ([3H]-N-alpha-methylhistamine, CHO-A3 cell membranes, SPA)
Settings: Table B, cell prints a number instead of a letter; read-out: rat H3 Ki
parameter_measured: Ki (nM)
Answer with a number only, understood to be in nM.

query: Query for rat histamine H3 receptor (Rattus norvegicus): what Ki does the record show for Cc1n[nH]c(=O)cc1-c1ccc(OCCCN2CCCCCC2)cc1 ?
result: 5

----------
Molecular target: human H3 receptor (Homo sapiens, UniProt Q9Y5N1)
Construct: expressed in transfected cells
Sequence (Q9Y5N1 whole entry): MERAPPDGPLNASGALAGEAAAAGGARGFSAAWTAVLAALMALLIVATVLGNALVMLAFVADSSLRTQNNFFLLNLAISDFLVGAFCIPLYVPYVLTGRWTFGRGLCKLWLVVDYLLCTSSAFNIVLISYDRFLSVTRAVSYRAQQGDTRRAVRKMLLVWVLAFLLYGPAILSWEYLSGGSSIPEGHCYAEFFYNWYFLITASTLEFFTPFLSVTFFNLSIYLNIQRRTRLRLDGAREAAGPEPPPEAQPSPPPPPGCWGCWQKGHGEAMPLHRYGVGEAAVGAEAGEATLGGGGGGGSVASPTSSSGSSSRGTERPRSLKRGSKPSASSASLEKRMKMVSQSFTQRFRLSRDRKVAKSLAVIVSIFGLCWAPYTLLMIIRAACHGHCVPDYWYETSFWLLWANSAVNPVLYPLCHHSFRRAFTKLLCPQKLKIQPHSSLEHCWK
Assay: Human H3 radioligand binding ([3H]-N-alpha-methylhistamine, CHO cell membranes, SPA)
Details: Table B, binding constant as letter class
Where a name gives a salt, the structure may show the parent alone.
parameter_measured: Ki

For orientation, consider the following solved cases.
query: GET /values?readout=Ki&system=human H3 receptor (Homo sapiens, UniProt Q9Y5N1)&item= Cc1onc2c(=O)[nH]nc(-c3ccc(OC4CCNCC4)cc3)c12 [Example 206, TFA salt]
result: > 1000 nM

query: So what Ki did C[C@@H]1CCCN1CCCOc1c(F)cc(-c2ccc(=O)n(C)n2)cc1F get with human H3 receptor (Homo sapiens, UniProt Q9Y5N1)?
result: 0.1 to 100 nM

query: Entry CC1(C)CC(c2ccc(OC3CCN(C4CCC4)CC3)cc2)=NNC1=O , system human H3 receptor (Homo sapiens, UniProt Q9Y5N1): what Ki was measured?
result: 0.1 to 100 nM

query: Please tell me: Ki of O=c1cc(-c2ccc(OC3CCN(C4CCC4)CC3)nc2)cn[nH]1 , system human H3 receptor (Homo sapiens, UniProt Q9Y5N1)?
result: 0.1 to 100 nM

query: Form field - read-out: Ki; system: human H3 receptor (Homo sapiens, UniProt Q9Y5N1); submitted item: O=C1CCC(c2ccc(OC3CCN(C4CCC4)CC3)cc2)=NN1CC(F)(F)F
result: 0.1 to 100 nM

query: GET /values?readout=Ki&system=human H3 receptor (Homo sapiens, UniProt Q9Y5N1)&item= CC1CC(=O)NN=C1c1ccc(OCCCN2CCC[C@H]2C)cc1 (single isomer, unassigned) [Example 196]
result: 0.1 to 100 nM

query: So what Ki did O=C1CCC(c2ccc(OC3CCN(C4CCCC4)CC3)cc2)=NN1CC(F)(F)F get with human H3 receptor (Homo sapiens, UniProt Q9Y5N1)?
result: 0.1 to 100 nM

---
query: Please state recorded Ki (tested on human H3 receptor (Homo sapiens, UniProt Q9Y5N1)) of O=c1ccc(-c2ccc(OC3CCN(C4CCC4)CC3)cc2)nn1-c1ccccn1
result: 0.1 to 100 nM

----------
Biological target: rat histamine H3 receptor (Rattus norvegicus)
Construct: encoding the entire 445-amino-acid rat histamine H3 receptor; expressed in transfected cells
Experiment: Rat H3 radioligand binding ([3H]-N-alpha-methylhistamine, CHO-A3 cell membranes, SPA)
Settings: Table B, binding constant as letter class; read-out: rat H3 Ki
Below: a set of entries, each annotated with reported Ki.

Answered examples (4):
query: # input compound: O=c1ccc(-c2ccc(OC3CCN(C4CCC4)CC3)cc2)nn1-c1ccccn1 ; wanted: its Ki
result: 0.1 to 100 nM

query: What value of Ki has been reported for the following compound? COCn1ncc(-c2ccc(OC3CCN(C4CCC4)CC3)cc2C)cc1=O
result: 0.1 to 100 nM

query: Could you share which Ki value was measured for Cc1cc(OCCCN2CCCCC2)ccc1-c1cn[nH]c(=O)c1 ?
result: 101 to 500 nM

query: For C[C@@H]1CCCN1CCCOc1ccc2c(c1)CCc1cc(=O)[nH]nc1-2 , what is its reported Ki?
result: 0.1 to 100 nM

***
query: Please give the measured Ki for this compound: CC(C)n1ncc(-c2ccc(OCCCN3CCC[C@H]3C)cc2)cc1=O
result: 0.1 to 100 nM

query: Looking for the measured Ki of O=C1CCC(c2ccc(OC3CCN(C4CCC4)CC3)cc2)=NN1CC(F)(F)F , can you help?
result: 0.1 to 100 nM

query: // returns reported Ki for input O=c1cc(-c2ccc(OCCCN3CCCCCC3)cc2)cnn1-c1ccccn1
result: 0.1 to 100 nM

query: Entry O=C1NN=C(c2ccc(OC3CCN(C4CCC4)CC3)cc2)C2CC12 (single isomer, unassigned) [Example 249] : reported Ki = ?
result: 0.1 to 100 nM

query: Ki lookup needed for C[C@@H]1CCCN1CCCOc1ccc(-c2ccc(=O)[nH]n2)cc1F , thanks.
result: 0.1 to 100 nM

query: Consider the compound shown here: O=C1CCC(c2ccc(O[C@@H]3CCN(C4CCCCC4)C3)cc2)=NN1 What is its recorded Ki?
result: > 1000 nM

query: Need Ki, item O=c1ccc(-c2ccc(OCC(O)CN3CCCCC3)cc2)n[nH]1 (stereo not drawn)
result: 101 to 500 nM

Data provenance is patent US8586588B2.
